Recorded values, source BindingDB's records for doi:10.7270/Q2TX3CTT.

Quick reference for pEC50 among some compounds
- targetEntity: Glycogen synthase kinase-3 beta (Homo sapiens)
- Sequence (P49841 whole entry): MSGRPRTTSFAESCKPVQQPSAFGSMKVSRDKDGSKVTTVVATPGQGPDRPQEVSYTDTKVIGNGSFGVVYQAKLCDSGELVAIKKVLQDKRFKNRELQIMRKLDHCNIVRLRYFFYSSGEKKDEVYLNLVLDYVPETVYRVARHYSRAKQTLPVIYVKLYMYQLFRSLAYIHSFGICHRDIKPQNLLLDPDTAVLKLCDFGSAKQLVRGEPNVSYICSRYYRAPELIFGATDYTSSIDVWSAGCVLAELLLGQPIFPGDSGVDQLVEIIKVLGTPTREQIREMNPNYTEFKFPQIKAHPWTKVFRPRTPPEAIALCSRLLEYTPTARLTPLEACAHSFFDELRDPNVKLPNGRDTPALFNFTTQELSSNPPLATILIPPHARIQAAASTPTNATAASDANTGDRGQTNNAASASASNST
- protocol: concentration-response blocking of human GSK3B – biochemical, luminescence, cell-free homogeneous, retest, dose response (AID 434954)
pEC50: −log10 of the molar value.
recordedMetric: pEC50

compound: O=NCc1ccc(OCc2ccccc2)c(Cl)c1
measuredValue: < 3.52

compound: COc1cccc(C(=O)CC(C#N)c2ccc(F)cc2)c1 (stereo not drawn)
measuredValue: < 3.52

compound: Cc1ccc2c(c1)C1CN(C)CCC1N2C(=O)Nc1cccc(Cl)c1 (stereo not drawn)
measuredValue: < 3.52

compound: COc1ccc(OC)c(C2Nc3ccccc3N=C3CC(C)(C)CC(=O)C32)c1 (stereo not drawn)
measuredValue: < 3.52

compound: NS(=O)(=O)c1ccc(N2CCCCCC2)c([N+](=O)[O-])c1
measuredValue: < 3.52

compound: N#Cc1ccc(CSc2nnc(-c3ccncc3)o2)cc1
measuredValue: 4.82

compound: CC(C(=O)NCC1CCCO1)n1cc([N+](=O)[O-])cn1 (stereo not drawn)
measuredValue: < 3.52

compound: CCOc1cc(C2c3c(n[nH]c3C)C(=O)N2c2ccc(Br)cc2)ccc1O (stereo not drawn)
measuredValue: < 3.52

compound: Cc1cnc(NC(=O)c2sc(Nc3ccccc3)nc2N)o1
measuredValue: 5.02

compound: CCc1cc2c(s1)NC(=O)CN=C2c1cccs1
measuredValue: 4.49

compound: Oc1ccccc1CN=Nc1nnn[nH]1
measuredValue: < 3.52

compound: O=c1c2c3c(sc2nc2n1N=C(c1cccs1)CS2)CCCC3
measuredValue: < 3.52

compound: Cn1c(SCC(=O)NC2CCCCC2)nnc1-c1ccccn1
measuredValue: < 3.52

compound: c1cncc(-c2nc(NCc3ccco3)c3ccccc3n2)c1
measuredValue: < 3.52

compound: O=C1NCCCc2c1oc1ccc(O)cc21
measuredValue: 5.69

compound: C[O+]=N[CH-]c1ccc(Oc2ccc(C)cc2)c([N+](=O)[O-])c1
measuredValue: < 3.52

compound: CC(C=Cc1ccccc1F)=NNC(=O)C(C)C
measuredValue: < 3.52

compound: O=C(O)c1ccccc1Nc1ccnc(Cl)n1
measuredValue: < 3.52

compound: O=Cc1ccc(Oc2nc(Cl)ncc2F)cc1
measuredValue: < 3.52

compound: O=c1c2c3c(sc2n2c(S)nnc2n1-c1ccccc1)CCC3
measuredValue: 4.47

compound: CCNC(=O)NC(=O)CSc1nc2ccccc2n1CCOC
measuredValue: < 3.52

compound: CC1(C)CC(=O)C=C(Nc2ccccc2F)C1
measuredValue: < 3.52

compound: Cc1ccc(S(=O)(=O)CC(=O)Nc2ncc([N+](=O)[O-])s2)cc1
measuredValue: < 3.52
